Listing of recorded MRT inf by entry.
Experiment: Pharmacokinetics after oral administration of LJF extract in normal rats
Type: in vivo, Sprague-Dawley rats
Conditions: male, Sprague-Dawley, rat; normal group (N), oral LJF ethanol extract 15.75 g/kg, plasma, mean ± SD, n = 6; read-out: MRT0–∞
Form entry: value (h) — number only.

Here are 3 compounds together with their reported answers.
O=C(O)c1ccc(O)c(O)c1
44.1
O=C(/C=C/c1ccc(O)c(O)c1)O[C@@H]1C[C@](O)(C(=O)O)C[C@@H](O)[C@H]1O
21.4
O=C(/C=C/c1ccc(O)c(O)c1)O[C@H]1C[C@](O)(C(=O)O)C[C@@H](O)[C@H]1O
18.2

Turning now to a further record.
Please report the recorded MRT inf for O=C(/C=C/c1ccc(O)c(O)c1)O[C@@H]1[C@H](O)C[C@@](O)(C(=O)O)C[C@@H]1O (stereo in doubt) .
14.7

Origin of measurements: paper PMC9739780
